Reference source: PubChem BioAssay (NCI)

tested on: SK-MEL-28 melanoma; assay: NCI tumour cell line growth inhibition, 48 h
Attribute measured: TGI (µM)

Molecule	Target	Attribute measured	Units text	Qualifier symbol	Numeric value
O=C([CH-]C(=O)c1ccccc1)c1ccccc1.O=C([CH-]C(=O)c1ccccc1)c1ccccc1.O=C([CH-]C(=O)c1ccccc1)c1ccccc1.[Cl-].[Zr+4]	SK-MEL-28 melanoma	TGI	µM	=	36.7
CC1(C)OC2OC(COC(=O)c3ccc(C#N)cc3)C3OC(C)(C)OC3C2O1 (configuration not stated)	SK-MEL-28 melanoma	TGI	µM	>	75
C[n+]1cn(-c2nc3ccccc3nc2[N-]S(=O)(=O)c2ccccc2)c2ccccc21	SK-MEL-28 melanoma	TGI	µM	>	100
C=C(C)C(=O)OC1C[C@H](COC(C)=O)C2CC=C(CO)C2C2OC(=O)C(=C)[C@H]12 (some centres not stated)	SK-MEL-28 melanoma	TGI	µM	>	100
C=CC[C@]1(C2=NC(C)(C)CO2)c2ccccc2-c2ccccc2[C@H]1C(C)=O	SK-MEL-28 melanoma	TGI	µM	>	54.5
COc1cc2nc(-c3cccc4cccnc34)nc(NC3CCN(Cc4ccccc4)CC3)c2cc1OC	SK-MEL-28 melanoma	TGI	µM	=	3.6
CC(C)(C)c1nc(-c2cccc(NS(=O)(=O)c3c(F)cccc3F)c2F)c(-c2ccnc(N)n2)s1	SK-MEL-28 melanoma	TGI	µM	>	100
c1ccc(C2CC(c3ccc4ccccc4c3)=Nc3ccccc3S2)cc1 (configuration not stated)	SK-MEL-28 melanoma	TGI	µM	=	33.1
CCC(C)(O)c1cn(-c2ccc(S(=O)(=O)O)cc2)nn1 (configuration not stated)	SK-MEL-28 melanoma	TGI	µM	>	100
Cc1cn(C2OC(CO)C(O)C2F)c(=O)[nH]c1=O (configuration not stated)	SK-MEL-28 melanoma	TGI	µM	>	100
Cc1ccc(O)c(NC2=C(Cl)C(=O)N(Cc3ccccc3)C2=O)c1	SK-MEL-28 melanoma	TGI	µM	=	54.1
COc1ccc2[nH]c(C(=O)OCc3ccc4cccc(O)c4n3)cc2c1	SK-MEL-28 melanoma	TGI	µM	=	3

---

system: RPMI-8226 leukemia; experiment: NCI tumour cell line growth inhibition, 48 h; in the data active = GI50 below about 0.43 µM; inactive = the rest
Labels: yes for active, no for inactive

Molecule	Target	Cat
COc1ccc2[nH]c(C(=O)OCc3ccc4cccc(O)c4n3)cc2c1	RPMI-8226 leukemia	yes
Nc1ccc(-c2ccc3ncc4ccc(=O)n(-c5cccc(C(F)(F)F)c5)c4c3c2)cn1	RPMI-8226 leukemia	yes
O=C(CN(/C=C/C(=O)C(F)(F)F)c1ccccc1)c1ccc(Cl)cc1	RPMI-8226 leukemia	no
O=C([CH-]C(=O)c1ccccc1)c1ccccc1.O=C([CH-]C(=O)c1ccccc1)c1ccccc1.O=C([CH-]C(=O)c1ccccc1)c1ccccc1.[Cl-].[Zr+4]	RPMI-8226 leukemia	no
CC(C)(C)c1nc(-c2cccc(NS(=O)(=O)c3c(F)cccc3F)c2F)c(-c2ccnc(N)n2)s1	RPMI-8226 leukemia	no
CCc1nn2ncccc2c1-c1ccnc(NC2CC2)n1	RPMI-8226 leukemia	no
COc1ccc(-c2nsc3c2NC(=O)CC3c2cccc(Cl)c2)cc1 (centres undefined)	RPMI-8226 leukemia	no
COc1cc2nc(-c3cccc4cccnc34)nc(NC3CCN(Cc4ccccc4)CC3)c2cc1OC	RPMI-8226 leukemia	no
CCOc1ccc(C(C)=O)cc1NC(=O)c1cccc(-c2nnn(CC)n2)c1	RPMI-8226 leukemia	no
